# target of assay: Dipeptidyl peptidase 4 (Rattus norvegicus, UniProt P14740)
# Sequence (P14740 whole entry): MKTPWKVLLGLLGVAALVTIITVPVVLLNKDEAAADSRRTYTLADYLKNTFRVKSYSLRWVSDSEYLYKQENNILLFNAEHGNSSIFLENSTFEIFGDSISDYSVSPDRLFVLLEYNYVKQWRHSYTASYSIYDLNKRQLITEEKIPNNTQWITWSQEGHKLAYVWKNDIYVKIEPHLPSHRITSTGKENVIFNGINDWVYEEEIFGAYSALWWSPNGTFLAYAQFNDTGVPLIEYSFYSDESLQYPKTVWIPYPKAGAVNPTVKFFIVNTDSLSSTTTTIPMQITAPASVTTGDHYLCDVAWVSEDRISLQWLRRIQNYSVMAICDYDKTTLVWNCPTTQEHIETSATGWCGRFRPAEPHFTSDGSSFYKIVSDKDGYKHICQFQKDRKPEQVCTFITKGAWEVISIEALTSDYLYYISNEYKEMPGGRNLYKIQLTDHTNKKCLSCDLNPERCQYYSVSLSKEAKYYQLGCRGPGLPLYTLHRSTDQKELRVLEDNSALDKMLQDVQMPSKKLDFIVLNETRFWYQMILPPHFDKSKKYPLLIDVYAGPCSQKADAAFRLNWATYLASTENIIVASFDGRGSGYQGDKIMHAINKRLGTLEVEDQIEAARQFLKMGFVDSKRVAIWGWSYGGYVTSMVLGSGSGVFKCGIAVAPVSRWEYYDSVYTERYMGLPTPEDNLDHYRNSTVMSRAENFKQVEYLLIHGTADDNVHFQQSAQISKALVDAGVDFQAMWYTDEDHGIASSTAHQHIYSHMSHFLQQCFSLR
# experimental details: Inhibition of DPP4 in rat plasma by fluorescence assay
Listed here: items and their measured IC50.
Please respond with the number in nM and leave the unit unwritten.

The examples below pair each entry with its known result.
INSERT INTO assay_data (substance_smiles, endpoint_result) VALUES
  ('O=C([C@@H]1C[C@H](N2CCN(c3ccc(Br)cc3)CC2)CN1)N1CCSC1', 9),
  ('O=C([C@@H]1C[C@H](N2CCN(c3ccc(Cl)cc3)CC2)CN1)N1CCSC1', 10.3),
  ('N#Cc1ccc(N2CCN([C@@H]3CN[C@H](C(=O)N4CCSC4)C3)CC2)nc1', 1.9),
  ('COc1ccc(N2CCN([C@@H]3CN[C@H](C(=O)N4CCSC4)C3)CC2)cc1', 16.9),
  ('O=C([C@@H]1C[C@H](N2CCN(c3ccccc3)CC2)CN1)N1CCSC1', 17.6);

Query: Quick one: IC50 of O=C([C@@H]1C[C@H](N2CCCCC2)CN1)N1CCSC1 ?
Reply: 74.4

Query: Lookup O=C([C@@H]1C[C@H](N2CCN(c3cccc(Cl)c3)CC2)CN1)N1CCSC1
Reply: 7.2

Query: Lookup O=C([C@@H]1C[C@H](N2CCN(c3ccc(F)cc3)CC2)CN1)N1CCSC1
Reply: 17.5

Query: Lookup N#Cc1ccnc(N2CCN([C@@H]3CN[C@H](C(=O)N4CCSC4)C3)CC2)c1
Reply: 1.4

Query: Lookup O=C([C@@H]1C[C@H](N2CCN(c3ccc(C(F)(F)F)cc3)CC2)CN1)N1CCSC1
Reply: 7.2

Query: Lookup N#Cc1ccc(N2CCN([C@@H]3CN[C@H](C(=O)N4CCSC4)C3)CC2)cc1
Reply: 4.7
